Sourced from patent US11912701B2

Molecular target: BRaf (Homo sapiens, UniProt P15056)
Construct: purchased ProQinase GmbH, Freiburg, Germany (33PanQinase Assay Service)
Sequence (P15056 whole entry, species assumed): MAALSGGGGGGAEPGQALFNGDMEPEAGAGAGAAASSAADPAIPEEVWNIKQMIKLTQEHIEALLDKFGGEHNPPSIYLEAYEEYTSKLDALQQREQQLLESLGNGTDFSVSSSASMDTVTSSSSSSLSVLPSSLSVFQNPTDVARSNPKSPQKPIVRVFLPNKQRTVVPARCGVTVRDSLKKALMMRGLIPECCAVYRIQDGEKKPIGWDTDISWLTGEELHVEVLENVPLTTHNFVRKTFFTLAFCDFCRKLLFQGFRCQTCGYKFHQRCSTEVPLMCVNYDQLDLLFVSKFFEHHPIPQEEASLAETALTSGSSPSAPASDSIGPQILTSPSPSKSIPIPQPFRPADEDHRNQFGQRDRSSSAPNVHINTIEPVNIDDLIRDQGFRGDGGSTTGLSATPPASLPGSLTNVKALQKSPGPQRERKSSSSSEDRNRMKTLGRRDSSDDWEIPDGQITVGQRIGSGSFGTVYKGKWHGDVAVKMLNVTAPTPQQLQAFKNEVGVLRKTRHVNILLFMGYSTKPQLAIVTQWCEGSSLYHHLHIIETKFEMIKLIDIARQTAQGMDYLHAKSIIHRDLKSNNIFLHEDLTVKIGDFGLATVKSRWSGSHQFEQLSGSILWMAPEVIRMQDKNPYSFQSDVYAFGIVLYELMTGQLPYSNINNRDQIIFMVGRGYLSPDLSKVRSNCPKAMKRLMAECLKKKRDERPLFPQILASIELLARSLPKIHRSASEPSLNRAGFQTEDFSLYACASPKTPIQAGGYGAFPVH
Assay: KINOMEscan competition binding assay, BRaf
Settings: ratio PoC (off-target)/PoC (MKK4)
Procedure: The assay was performed by combining three components: DNA-tagged kinase; immobilized ligand; and a test compound. The ability of the test compound to compete with the immobilized ligand was measured via quantitative PCR of the DNA tag. […] For investigation of the affinity to MKK4, BRaf, MKK7 and JNK1, the kinases were produced in HEK-293 cells and subsequently tagged with DNA for qPCR detection. […] The kinase concentration in the eluates was measured by qPCR. […]
Measured Attribute: selectivity based on % Ctrl @100 nM vs. Braf

Previously resolved entries follow.
- C=Cc1ccc(-c2cnc3[nH]cc(C(=O)c4ccc(F)c(NS(=O)(=O)CCC)c4F)c3c2)cn1: +++ (Ratio > 100)
- O=C(c1c(F)ccc(NS(=O)(=O)Cc2ccccc2)c1F)c1c[nH]c2ncc(-c3ccc(F)cc3)cc12: ++ (100 ≥ ratio > 10)
- CCCS(=O)(=O)Nc1c(F)ccc(C(=O)c2c[nH]c3ncc(-c4cnc(C(F)(F)F)nc4)cc23)c1F: +++ (Ratio > 100)
- O=C(c1ccc(F)c(NS(=O)(=O)CCC(F)(F)F)c1F)c1c[nH]c2ncc(-c3ccc(C(F)(F)F)nc3)cc12: +++ (Ratio > 100)
- CCCS(=O)(=O)Nc1c(F)ccc(C(=O)c2c[nH]c3ncc(-c4ccc(C(F)(F)F)nc4)cc23)c1F: +++ (Ratio > 100)

Lab note: need selectivity based on % Ctrl @100 nM vs. Braf for CCCS(=O)(=O)Nc1ccc(F)c(C(=O)c2c[nH]c3ncc(-c4ccc(OCC5COC(C)(C)O5)cc4)cc23)c1F (centres unmarked) on BRaf (Homo sapiens, UniProt P15056), anyone have it?
◯ (3 ≥ Ratio)

Request: CCCS(=O)(=O)Nc1c(F)ccc(C(=O)c2c[nH]c3ncc(-c4cnc(Cl)cn4)cc23)c1F
+++ (Ratio > 100)

Request: CCCS(=O)(=O)Nc1ccc(F)c(C(=O)c2c[nH]c3ncc(C4CCNCC4)cc23)c1F
◯ (3 ≥ Ratio)

Request: Cc1cc(F)ccc1-c1cnc2[nH]cc(C(=O)c3cccc(NS(=O)(=O)Cc4ccccc4)c3F)c2c1
++ (100 ≥ ratio > 10)

Request: CCCS(=O)(=O)Nc1ccc(F)c(C(=O)c2c[nH]c3ncc(-c4cnc[nH]4)cc23)c1F
◯ (3 ≥ Ratio)

Request: COc1ccc(-c2cnc3[nH]cc(C(=O)c4c(F)ccc(NS(=O)(=O)Cc5ccccc5)c4F)c3c2)cc1
++ (100 ≥ ratio > 10)

Request: CCCS(=O)(=O)Nc1ccc(F)c(C(=O)c2c[nH]c3ncc(-c4nncs4)cc23)c1F
◯ (3 ≥ Ratio)

Request: O=C(c1ccc(F)c(NS(=O)(=O)CCC(F)(F)F)c1F)c1c[nH]c2ncc(-c3cnc(N4CCCC4)nc3)cc12
+++ (Ratio > 100)

Request: CCCS(=O)(=O)Nc1ccc(F)c(C(=O)c2c[nH]c3ncc(-c4cccnc4)cc23)c1F
++ (100 ≥ ratio > 10)

* * *

target: JNK1 (Homo sapiens); assay: KINOMEscan competition binding assay, JNK1; set-up: M1/Q384; host or cells: HEK-293; conditions: ratio PoC (off-target)/PoC (MKK4)
Sequence (P45983 1-384 isoform P45983-2): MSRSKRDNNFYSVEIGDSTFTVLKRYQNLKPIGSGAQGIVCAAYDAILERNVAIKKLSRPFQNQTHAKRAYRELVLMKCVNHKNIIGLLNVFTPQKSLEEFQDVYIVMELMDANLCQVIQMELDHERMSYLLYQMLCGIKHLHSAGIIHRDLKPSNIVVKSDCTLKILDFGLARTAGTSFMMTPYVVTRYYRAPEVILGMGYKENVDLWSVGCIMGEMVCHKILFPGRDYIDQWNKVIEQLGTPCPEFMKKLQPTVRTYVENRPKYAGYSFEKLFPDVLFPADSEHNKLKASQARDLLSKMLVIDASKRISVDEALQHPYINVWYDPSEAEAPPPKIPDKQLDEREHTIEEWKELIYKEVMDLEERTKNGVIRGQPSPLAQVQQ
Measured Attribute: selectivity based on % Ctrl @100 nM vs. JNK1

Previously resolved entries follow.
- CCCS(=O)(=O)Nc1cc(Br)cc(C(=O)c2c[nH]c3ncc(-c4ccc(Cl)cc4)cc23)c1: ◯ (3 ≥ Ratio)
- O=C(c1ccc(F)c(NS(=O)(=O)CCC(F)(F)F)c1F)c1c[nH]c2ncc(-c3cccnc3)cc12: +++ (Ratio > 100)
- CCCS(=O)(=O)Nc1ccc(F)c(C(=O)c2c[nH]c3ncc(-c4ccc5ccsc5c4)cc23)c1F: ◯ (3 ≥ Ratio)
- CCCS(=O)(=O)Nc1c(F)ccc(C(=O)c2c[nH]c3ncc(-c4ccc(N(C)C)nc4)cc23)c1F: +++ (Ratio > 100)
- CCCS(=O)(=O)Nc1ccc(F)c(C(=O)c2c[nH]c3ncc(-c4ccccn4)cc23)c1F: ++ (100 ≥ ratio > 10)

Lab note: need selectivity based on % Ctrl @100 nM vs. JNK1 for CCCS(=O)(=O)Nc1ccc(F)c(C(=O)c2c[nH]c3ncc(-c4nncs4)cc23)c1F on JNK1 (Homo sapiens), anyone have it?
++ (100 ≥ ratio > 10)

Request: CCCS(=O)(=O)Nc1ccc(C#N)c(C(=O)c2c[nH]c3ncc(-c4ccc(Cl)cc4)cc23)c1F
+ (10 ≥ ratio > 3)

Request: CCCS(=O)(=O)Nc1ccc(F)c(C(=O)c2c[nH]c3ncc(-c4ccc(OCC(O)CO)cc4)cc23)c1F (stereo not shown)
+++ (Ratio > 100)

Request: CCCS(=O)(=O)Nc1ccc(F)c(C(=O)c2c[nH]c3ncc(C4=CCNCC4)cc23)c1F
+ (10 ≥ ratio > 3)

Request: CCCS(=O)(=O)Nc1ccc(F)c(C(=O)c2c[nH]c3ncc(-c4ccc(OCC(O)CO)cc4Cl)cc23)c1F (stereo not shown)
+++ (Ratio > 100)

Request: O=C(c1c(F)ccc(NS(=O)(=O)CCCO)c1F)c1c[nH]c2ncc(-c3ccc(Cl)cc3)cc12
◯ (3 ≥ Ratio)

Request: Cc1cccc(CS(=O)(=O)Nc2ccc(F)c(C(=O)c3c[nH]c4ncc(-c5ccc(Cl)cc5)cc34)c2F)c1
+ (10 ≥ ratio > 3)

Request: CCCS(=O)(=O)Nc1c(F)ccc(C(=O)c2c[nH]c3ncc(-c4ccc(NC)nc4)cc23)c1F
+++ (Ratio > 100)

Request: O=C(c1c(F)ccc(NS(=O)(=O)Cc2ccccc2)c1F)c1c[nH]c2ncc(-c3ccc(OCC(O)CO)cc3)cc12 (stereo not shown)
+++ (Ratio > 100)

* * *

target: MKK4 (Homo sapiens, UniProt P45985); construct: S84/D399; host or cells: HEK-293; assay: KINOMEscan competition binding assay, MKK4; details: residual percent of control binding (PoC) at 100 nM
Sequence (P45985 84-399): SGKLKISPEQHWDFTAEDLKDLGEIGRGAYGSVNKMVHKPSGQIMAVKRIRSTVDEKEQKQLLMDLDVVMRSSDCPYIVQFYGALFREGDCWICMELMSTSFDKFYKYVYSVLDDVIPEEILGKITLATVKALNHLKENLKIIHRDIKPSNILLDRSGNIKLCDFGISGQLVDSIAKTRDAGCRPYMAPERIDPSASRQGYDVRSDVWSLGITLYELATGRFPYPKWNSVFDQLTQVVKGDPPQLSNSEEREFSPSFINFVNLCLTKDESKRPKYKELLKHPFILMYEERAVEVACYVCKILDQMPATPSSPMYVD
Measured Attribute: MKK4 [% Ctrl @ 100 nM

Previously resolved entries follow.
* O=C(c1ccc(F)c(NS(=O)(=O)CCC(F)(F)F)c1F)c1c[nH]c2ncc(-c3cccnc3)cc12 | +++ (PoC < 1)
* O=C(c1c(F)ccc(NS(=O)(=O)CCC(F)(F)F)c1F)c1c[nH]c2ncc(-c3ccc(N4CCS(=O)(=O)CC4)nc3)cc12 | +++ (PoC < 1)
* CCCS(=O)(=O)Nc1c(F)ccc(C(=O)c2c[nH]c3ncc(-c4cnc(C(F)(F)F)nc4)cc23)c1F | +++ (PoC < 1)
* O=C(c1cccc(NS(=O)(=O)Cc2ccccc2)c1F)c1c[nH]c2ncc(-c3cc4c(cc3Cl)OCO4)cc12 | ++ (1 ≤ PoC < 3)

Quick one: MKK4 [% Ctrl @ 100 nM for CCCS(=O)(=O)Nc1c(F)ccc(C(=O)c2c[nH]c3ncc(-c4ccc(NC)nc4)cc23)c1F ?
+++ (PoC < 1)

Request: CCCS(=O)(=O)Nc1ccc(F)c(C(=O)c2c[nH]c3ncc(-c4nc[nH]n4)cc23)c1F
+ (3 ≤ PoC < 30)

Request: CCCS(=O)(=O)Nc1ccc(F)c(C(=O)c2c[nH]c3ncc(-c4ccccc4OC)cc23)c1F
++ (1 ≤ PoC < 3)

Request: CCCS(=O)(=O)Nc1ccc(Br)c(C(=O)c2c[nH]c3ncc(-c4ccc(Cl)cc4)cc23)c1F
+ (3 ≤ PoC < 30)

Request: O=C(c1c(F)ccc(NS(=O)(=O)CCC(F)(F)F)c1F)c1c[nH]c2ncc(-c3ccc(N4CCOCC4)nc3)cc12
+++ (PoC < 1)

* * *

molecular target: BRaf (Homo sapiens); construct: purchased ProQinase GmbH, Freiburg, Germany (33PanQinase Assay Service); test: KINOMEscan competition binding assay, BRaf; conditions: ratio PoC (off-target)/PoC (MKK4)
Measured Attribute: selectivity based on % Ctrl @100 nM vs. Braf

* O=C(c1c(F)ccc(NS(=O)(=O)CCCO)c1F)c1c[nH]c2ncc(-c3ccc(Cl)cc3)cc12 | ◯ (3 ≥ Ratio)
* CCCS(=O)(=O)Nc1ccc(F)c(C(=O)c2c[nH]c3ncc(-c4ccn[nH]4)cc23)c1F | ◯ (3 ≥ Ratio)
* CCCS(=O)(=O)Nc1ccc(F)c(C(=O)c2c[nH]c3ncc(-c4ccc(OC(F)(F)F)cc4)cc23)c1F | ◯ (3 ≥ Ratio)
* CCCS(=O)(=O)Nc1cc(Cl)cc(C(=O)c2c[nH]c3ncc(-c4ccc(Cl)cc4)cc23)c1 | ◯ (3 ≥ Ratio)
* CCCCS(=O)(=O)Nc1ccc(F)c(C(=O)c2c[nH]c3ncc(-c4ccc(F)cc4C)cc23)c1F | ++ (100 ≥ ratio > 10)
* CCCS(=O)(=O)Nc1ccc(F)c(C(=O)c2c[nH]c3ncc(-c4ccc(C(=O)O)cc4)cc23)c1F | ++ (100 ≥ ratio > 10)
* CCCS(=O)(=O)Nc1ccc(F)c(C(=O)c2c[nH]c3ncc(-c4cc[nH]c4)cc23)c1F | ◯ (3 ≥ Ratio)

Lab note: need selectivity based on % Ctrl @100 nM vs. Braf for CCCS(=O)(=O)Nc1ccc(F)c(C(=O)c2c[nH]c3ncc(-c4ccc(OC)c(OC)c4)cc23)c1F on BRaf (Homo sapiens), anyone have it?
◯ (3 ≥ Ratio)
